biological target: UniProt Q9QZN9; experiment: cell-based; format: cell-based; settings: agonist or inverse agonist at rCB2
Sequence (Q9QZN9 whole entry): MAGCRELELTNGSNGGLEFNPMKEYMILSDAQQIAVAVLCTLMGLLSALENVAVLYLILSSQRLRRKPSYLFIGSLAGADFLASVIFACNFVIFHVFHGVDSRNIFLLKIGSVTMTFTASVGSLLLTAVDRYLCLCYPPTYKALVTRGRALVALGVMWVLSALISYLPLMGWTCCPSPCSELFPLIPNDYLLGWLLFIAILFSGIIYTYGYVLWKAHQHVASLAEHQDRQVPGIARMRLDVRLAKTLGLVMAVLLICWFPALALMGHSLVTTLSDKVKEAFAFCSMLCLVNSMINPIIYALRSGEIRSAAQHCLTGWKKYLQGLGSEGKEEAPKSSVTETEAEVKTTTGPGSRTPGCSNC
REPORTED_METRIC: +/− RCB2

molecule="CNC(=O)[C@@H](NC(=O)c1nc(-c2ccc(Cl)cc2F)n2c1CN(C1CCN(C(C)=O)CC1)CCC2)C(C)(C)C [Compound 527]" reported_metric="+/− RCB2" value_measured=−
molecule="CNC(=O)[C@@H](NC(=O)c1nc(-c2ccccc2)n2c1CN(C(=O)C(C)C)CC2)C(C)(C)C [Compound 191]" reported_metric="+/− RCB2" value_measured=−
molecule="CN1CCCn2c(-c3ccc(F)c(Cl)c3)nc(C(=O)N[C@@H](CC(C)(C)C)C(N)=O)c2C1 [Compound 587]" reported_metric="+/− RCB2" value_measured=+
molecule="CNC(=O)[C@@H](NC(=O)c1nc(-c2cc(F)cc(F)c2)n2c1CN(C)CCC2)C(C)(C)C [Compound 331]" reported_metric="+/− RCB2" value_measured=+
molecule="CNC(=O)[C@@H](NC(=O)c1nc(C2=CCC(C(C)(C)C)CC2)n2c1CN(C)CC2)C(C)(C)C (stereo partly drawn) [Compound 271]" reported_metric="+/− RCB2" value_measured=+
molecule="CNC(=O)[C@@H](NC(=O)c1nc(-c2ccc(C(C)(C)C)cc2)n2c1CN(C)CCC2)C(C)(C)C [Compound 414]" reported_metric="+/− RCB2" value_measured=−
molecule="CNC(=O)[C@@H](NC(=O)c1nc(-c2ccc(NS(C)(=O)=O)cc2)n2c1CN(C)CCC2)C(C)(C)C [Compound 420]" reported_metric="+/− RCB2" value_measured=−
molecule="CNC(=O)[C@@H](NC(=O)c1nc(-c2cccc(Cl)c2)n2c1CNCC2)C(C)(C)C [Compound 18]" reported_metric="+/− RCB2" value_measured=−
molecule="CNC(=O)[C@@H](NC(=O)c1nc(-c2c(F)cccc2F)n2c1CN(C)CCC2)C(C)(C)C [Compound 601]" reported_metric="+/− RCB2" value_measured=+
molecule="CNC(=O)[C@@H](NC(=O)c1nc(-c2ccc(C(=O)N(C)C)cc2)n2c1CN(C)CCC2)C(C)(C)C [Compound 394]" reported_metric="+/− RCB2" value_measured=−
molecule="CNC(=O)[C@@H](NC(=O)c1nc(-c2cc(F)c(F)c(F)c2)n2c1CN(C)CCC2)C(C)(C)C [Compound 375]" reported_metric="+/− RCB2" value_measured=+
molecule="CNC(=O)[C@@H](NC(=O)c1nc(C2CC2)n2c1CN(C)CCC2)C(C)(C)C [Compound 435]" reported_metric="+/− RCB2" value_measured=+
molecule="CNC(=O)[C@@H](NC(=O)c1nc(-c2ccccc2)n2c1CN(C1CC1)CCC2)C(C)(C)C [Compound 199]" reported_metric="+/− RCB2" value_measured=+
molecule="CNC(=O)[C@@H](NC(=O)c1nc(-c2ccc3ccccc3c2)n2c1CN(C)CCC2)C(C)(C)C [Compound 380]" reported_metric="+/− RCB2" value_measured=−
molecule="CNC(=O)[C@@H](NC(=O)c1nc(-c2ccccc2)n2c1CN(CC1CC1)CC2)C(C)(C)C [Compound 56]" reported_metric="+/− RCB2" value_measured=−
molecule="CNC(=O)[C@@H](NC(=O)c1nc(-c2cccc(F)c2F)n2c1CN(C)CC2)C(C)(C)C [Compound 261]" reported_metric="+/− RCB2" value_measured=+
molecule="COC(=O)N1CCn2c(-c3ccc(Cl)cc3)nc(C(=O)NCCC(C)C)c2C1 [Compound 183]" reported_metric="+/− RCB2" value_measured=−
molecule="CC(=O)N1CCn2c(-c3ccccc3)nc(C(=O)N[C@@H](C)c3ccccc3)c2C1 [Compound 172]" reported_metric="+/− RCB2" value_measured=+
molecule="CCS(=O)(=O)N1CCn2c(-c3ccccc3)nc(C(=O)Nc3ccccc3)c2C1 [Compound 114]" reported_metric="+/− RCB2" value_measured=−
molecule="CNC(=O)[C@@H](NC(=O)c1nc(-c2ccccc2)n2c1CN(S(=O)(=O)c1ccccc1[N+](=O)[O-])CC2)C(C)(C)C [Compound 97]" reported_metric="+/− RCB2" value_measured=−
molecule="CNC(=O)[C@@H](NC(=O)c1nc(-c2ccc(C)cc2F)n2c1CN(C)CCC2)C(C)(C)C [Compound 340]" reported_metric="+/− RCB2" value_measured=+
molecule="CNC(=O)[C@@H](NC(=O)c1nc(-c2ccccc2C(C)C)n2c1CN(C)CCC2)C(C)(C)C [Compound 403]" reported_metric="+/− RCB2" value_measured=+
molecule="C=C(C)c1nc(C(=O)N[C@H](C(=O)NC)C(C)(C)C)c2n1CCCN(C)C2 [Compound 441]" reported_metric="+/− RCB2" value_measured=+
molecule="CNC(=O)[C@@H](NC(=O)c1nc(-c2cc(F)c(OC)cc2F)n2c1CN(C)CCC2)C(C)(C)C [Compound 424]" reported_metric="+/− RCB2" value_measured=+
molecule="CC(C)C[C@H](NC(=O)c1nc(-c2cccc(F)c2)n2c1CN(C)CCC2)C(N)=O [Compound 566]" reported_metric="+/− RCB2" value_measured=+
molecule="CNC(=O)[C@@H](NC(=O)c1nc(C(=O)Nc2ccccc2)n2c1CN(C)CC2)C(C)(C)C [Compound 290]" reported_metric="+/− RCB2" value_measured=−
molecule="Cc1noc([C@@H](NC(=O)c2nc(-c3ccccc3)n3c2CN(C(C)C)CCC3)C(C)(C)C)n1 [Compound 525]" reported_metric="+/− RCB2" value_measured=−
molecule="CNC(=O)[C@@H](NC(=O)c1nc(-c2cccc3cccnc23)n2c1CN(C)CC2)C(C)(C)C [Compound 242]" reported_metric="+/− RCB2" value_measured=−
molecule="CNC(=O)[C@@H](NC(=O)c1nc(-c2ccccc2)n2c1CN(C(=O)OC)CC2)C(C)(C)C [Compound 180]" reported_metric="+/− RCB2" value_measured=−
molecule="C/C=C/c1nc(C(=O)N[C@H](C(=O)NC)C(C)(C)C)c2n1CCCN(C)C2 [Compound 376]" reported_metric="+/− RCB2" value_measured=+

###

target: human CB1 receptor (hCB1) (Homo sapiens); experiment: cell-based; assay type: cell-based
Sequence (P21554 whole entry): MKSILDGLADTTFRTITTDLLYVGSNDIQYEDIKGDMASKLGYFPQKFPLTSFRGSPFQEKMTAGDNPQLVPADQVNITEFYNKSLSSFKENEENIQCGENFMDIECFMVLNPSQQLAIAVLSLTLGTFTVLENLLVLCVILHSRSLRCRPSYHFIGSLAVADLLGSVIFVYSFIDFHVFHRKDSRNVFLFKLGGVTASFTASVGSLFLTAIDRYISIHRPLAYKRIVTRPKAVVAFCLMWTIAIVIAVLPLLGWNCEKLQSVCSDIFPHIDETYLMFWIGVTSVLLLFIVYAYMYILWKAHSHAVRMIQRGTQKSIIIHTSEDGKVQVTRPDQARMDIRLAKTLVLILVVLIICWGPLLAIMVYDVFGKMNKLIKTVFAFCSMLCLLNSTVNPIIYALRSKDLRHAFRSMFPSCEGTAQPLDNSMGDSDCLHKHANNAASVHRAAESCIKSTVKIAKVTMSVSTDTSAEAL
Measured EC50 values are reported for all entries that follow.
REPORTED_METRIC: EC50

molecule="CNC(=O)[C@@H](NC(=O)c1nc(C2CCC(F)(F)CC2)n2c1CN(C)CCC2)C(C)(C)C [Compound 528]" value_measured="> 10 µM"
molecule="CNC(=O)[C@@H](NC(=O)c1nc(CCC2CC2)n2c1CN(C)CCC2)C(C)(C)C [Compound 490]" value_measured="> 10 µM"
molecule="CC(C)(C)c1noc([C@@H](NC(=O)c2nc(-c3ccccc3)n3c2CN(C2CC2)CC3)C(C)(C)C)n1 [Compound 284]" value_measured="> 10 µM"
molecule="CCCc1nc(C(=O)N[C@H](C(=O)NC)C(C)(C)C)c2n1CCN(C)C2 [Compound 304]" value_measured="> 10 µM"
molecule="COC(=O)N1CCn2c(-c3ccc(Cl)cc3)nc(C(=O)NCCC(C)C)c2C1 [Compound 183]" value_measured="> 10 µM"
molecule="CNC(=O)c1ccc(-c2nc(C(=O)N[C@H](C(=O)NC)C(C)(C)C)c3n2CCCN(C)C3)cc1 [Compound 408]" value_measured="> 10 µM"
molecule="CNC(=O)[C@@H](NC(=O)c1nc(-c2cccc(F)c2)n2c1CNCC2)C(C)(C)C [Compound 4]" value_measured="> 10 µM"
molecule="Cc1noc([C@@H](NC(=O)c2nc(-c3ccccc3)n3c2CN(C)CC3)C(C)(C)C)n1 [Compound 87]" value_measured="> 10 µM"
molecule="CNC(=O)[C@@H](NC(=O)c1nc(-c2ccc(F)cc2)n2c1CNCC2)C(C)(C)C [Compound 6]" value_measured="> 10 µM"
molecule="CNC(=O)[C@@H](NC(=O)c1nc(-c2ccccc2C(N)=O)n2c1CN(C)CCC2)C(C)(C)C [Compound 431]" value_measured="> 10 µM"
molecule="CCCC/C=C/c1nc(C(=O)N[C@H](C(=O)NC)C(C)(C)C)c2n1CCCN(C)C2 [Compound 400]" value_measured="> 10 µM"
molecule="CNC(=O)[C@@H](NC(=O)c1nc(-c2cc3ccccc3o2)n2c1CN(C)CCC2)C(C)(C)C [Compound 351]" value_measured="> 10 µM"
molecule="CC12CCC(C1)C(C)(C)C2NC(=O)c1nc(-c2ccccc2)n2c1CN(C(=O)C1CCOC1)CC2 (stereo not shown) [Compound 121]" value_measured="> 10 µM"
molecule="CNC(=O)[C@@H](NC(=O)c1nc(-c2ccccc2)n2c1CN(CC(C)C)CCC2)C(C)(C)C [Compound 320]" value_measured="> 10 µM"
molecule="CNC(=O)[C@@H](NC(=O)c1nc(-c2ccsc2)n2c1CN(CC1CC1)CC2)C(C)(C)C [Compound 74]" value_measured="> 10 µM"
molecule="CCN1CCn2c(-c3ccccc3)nc(C(=O)N[C@H](C(=O)NC)C(C)(C)C)c2C1 [Compound 149]" value_measured="> 10 µM"
molecule="CNC(=O)[C@@H](NC(=O)c1nc(/C=C/c2ccccc2)n2c1CN(C)CCC2)C(C)(C)C [Compound 336]" value_measured="> 10 µM"
molecule="CC(C)CCNC(=O)c1nc(-c2ccc(Cl)cc2)n2c1CN(C(=O)C1CC1)CC2 [Compound 131]" value_measured="> 10 µM"
molecule="CNC(=O)[C@@H](NC(=O)c1nc(-c2ccoc2)n2c1CNCC2)C(C)(C)C [Compound 12]" value_measured="> 10 µM"
molecule="CCN1CCn2c(-c3ccccc3)nc(C(=O)Nc3ccccc3)c2C1 [Compound 152]" value_measured="> 10 µM"
molecule="CNC(=O)[C@@H](NC(=O)c1nc(-c2ccc(C(=O)N(C)C)cc2)n2c1CN(C)CCC2)C(C)(C)C [Compound 394]" value_measured="> 10 µM"
molecule="CNC(=O)[C@@H](NC(=O)c1nc(-c2ccccc2)n2c1CN(C(=O)OC(C)(C)C)CCC2)C(C)(C)C [Compound 312]" value_measured="> 10 µM"
molecule="CNC(=O)[C@@H](NC(=O)c1nc(-c2ccc(C(=O)N(C)C)c(F)c2)n2c1CN(C)CCC2)C(C)(C)C [Compound 426]" value_measured="> 10 µM"
molecule="CNC(=O)[C@@H](NC(=O)c1nc(-c2cc(F)ccc2F)n2c1CN(C)CCC2)C(C)(C)C [Compound 359]" value_measured="> 10 µM"
molecule="Cc1nnc([C@@H](NC(=O)c2nc(-c3ccccc3)n3c2CNCC3)C(C)(C)C)o1 [Compound 200]" value_measured="> 10 µM"
molecule="CN1CCn2c(-c3ccc(Cl)cc3F)nc(C(=O)NC3CCN(C(=O)OC(C)(C)C)CC3)c2C1 [Compound 209]" value_measured="> 10 µM"
molecule="C[C@@H](NC(=O)c1nc(-c2ccccc2)n2c1CN(C(=O)OC(C)(C)C)CC2)C1CCCCC1 [Compound 37]" value_measured="> 10 µM"
molecule="CC(C)C[C@H](NC(=O)c1nc(-c2cccc(F)c2)n2c1CN(C)CCC2)C(N)=O [Compound 566]" value_measured="> 10 µM"
molecule="CNC(=O)[C@@H](NC(=O)c1nc(/C=C/COC)n2c1CN(C)CCC2)C(C)(C)C [Compound 398]" value_measured="> 10 µM"
molecule="CNC(=O)[C@@H](NC(=O)c1nc(-c2cc(OC)cc(C(F)(F)F)c2)n2c1CN(C)CCC2)C(C)(C)C [Compound 418]" value_measured="> 10 µM"
molecule="CNC(=O)[C@@H](NC(=O)c1nc(-c2ccccc2)n2c1CN(Cc1cnn(C)c1)CC2)C(C)(C)C [Compound 66]" value_measured="> 10 µM"
